src = ChEMBL document CHEMBL1146314

Recorded inhibition, one value per entry.
Target: UniProt P08253
Sequence (P08253 110-660 limits assumed): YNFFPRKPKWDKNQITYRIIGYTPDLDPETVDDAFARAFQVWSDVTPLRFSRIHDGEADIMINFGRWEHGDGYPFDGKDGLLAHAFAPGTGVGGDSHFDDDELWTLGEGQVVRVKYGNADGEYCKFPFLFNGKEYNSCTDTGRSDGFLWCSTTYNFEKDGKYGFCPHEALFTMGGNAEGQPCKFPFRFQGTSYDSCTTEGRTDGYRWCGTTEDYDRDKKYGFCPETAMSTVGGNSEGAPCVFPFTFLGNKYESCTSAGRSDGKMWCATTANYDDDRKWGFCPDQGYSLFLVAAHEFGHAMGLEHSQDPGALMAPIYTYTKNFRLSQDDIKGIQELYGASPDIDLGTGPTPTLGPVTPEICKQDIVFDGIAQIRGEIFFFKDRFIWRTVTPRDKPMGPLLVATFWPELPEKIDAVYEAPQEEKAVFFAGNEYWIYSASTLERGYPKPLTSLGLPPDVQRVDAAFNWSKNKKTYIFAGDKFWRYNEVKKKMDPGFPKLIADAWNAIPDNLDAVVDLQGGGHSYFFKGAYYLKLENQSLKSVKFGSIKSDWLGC
Assay: Inhibition of human recombinant MMP2 at 100 uM
Could you give the number and then its unit, please?

These solved cases illustrate the format of a correct answer.
[
  {
    "molecule": "NC1=NC(=O)C2N=C(CNc3ccc(C(=O)N[C@@H](CCC(=O)N4CCC[C@H]4C(=O)NO)C(=O)O)cc3)C=NC2=N1 (some centres undefined)",
    "systemUnderTest": "UniProt P08253",
    "inhibition": "58%"
  },
  {
    "molecule": "CN(Cc1cnc2nc(N)nc(N)c2n1)c1ccc(C(=O)N[C@@H](CCC(=O)NO)C(=O)O)cc1",
    "systemUnderTest": "UniProt P08253",
    "inhibition": "67%"
  },
  {
    "molecule": "CN(Cc1cnc2nc(N)nc(N)c2n1)c1ccc(C(=O)N[C@@H](CCC(=O)N2CCC[C@H]2C(=O)NO)C(=O)O)cc1",
    "systemUnderTest": "UniProt P08253",
    "inhibition": "56%"
  }
]

// switching to the query molecule
Note down inhibition recorded for Nc1nc2ncc(CNc3ccc(C(=O)N[C@@H](CCC(=O)NO)C(=O)O)cc3)nc2c(=O)[nH]1
66%

====

Recorded pIC50, one value per entry.
Target: Dihydrofolate reductase (Homo sapiens, UniProt P00374)
Sequence (P00374 whole entry): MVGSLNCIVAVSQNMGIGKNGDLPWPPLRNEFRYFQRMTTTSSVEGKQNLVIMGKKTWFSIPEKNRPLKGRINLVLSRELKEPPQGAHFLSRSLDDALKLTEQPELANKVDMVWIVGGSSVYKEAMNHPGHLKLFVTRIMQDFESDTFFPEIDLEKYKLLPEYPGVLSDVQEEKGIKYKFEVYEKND
A value of pIC50 is the negative decimal logarithm of a concentration given in moles per litre.

[
  {
    "testSmiles": "CN(Cc1cnc2nc(N)nc(N)c2n1)c1ccc(C(=O)N[C@@H](CCC(=O)NO)C(=O)O)cc1",
    "measurementType": "pIC50",
    "observedResult": 6.77
  },
  {
    "testSmiles": "CN(Cc1cnc2nc(N)nc(N)c2n1)c1ccc(C(=O)N[C@@H](CCC(=O)N[C@@H](Cc2ccccc2)C(=O)NO)C(=O)O)cc1",
    "measurementType": "pIC50",
    "observedResult": 6.60
  }
]

// switching to the query molecule
Note down pIC50 recorded for CN(Cc1cnc2nc(N)nc(N)c2n1)c1ccc(C(=O)N[C@@H](CCC(=O)N2CCC[C@H]2C(=O)NO)C(=O)O)cc1
6.89

====

Target: Matrix metalloproteinase-9 (Homo sapiens)
Sequence (P14780 whole entry): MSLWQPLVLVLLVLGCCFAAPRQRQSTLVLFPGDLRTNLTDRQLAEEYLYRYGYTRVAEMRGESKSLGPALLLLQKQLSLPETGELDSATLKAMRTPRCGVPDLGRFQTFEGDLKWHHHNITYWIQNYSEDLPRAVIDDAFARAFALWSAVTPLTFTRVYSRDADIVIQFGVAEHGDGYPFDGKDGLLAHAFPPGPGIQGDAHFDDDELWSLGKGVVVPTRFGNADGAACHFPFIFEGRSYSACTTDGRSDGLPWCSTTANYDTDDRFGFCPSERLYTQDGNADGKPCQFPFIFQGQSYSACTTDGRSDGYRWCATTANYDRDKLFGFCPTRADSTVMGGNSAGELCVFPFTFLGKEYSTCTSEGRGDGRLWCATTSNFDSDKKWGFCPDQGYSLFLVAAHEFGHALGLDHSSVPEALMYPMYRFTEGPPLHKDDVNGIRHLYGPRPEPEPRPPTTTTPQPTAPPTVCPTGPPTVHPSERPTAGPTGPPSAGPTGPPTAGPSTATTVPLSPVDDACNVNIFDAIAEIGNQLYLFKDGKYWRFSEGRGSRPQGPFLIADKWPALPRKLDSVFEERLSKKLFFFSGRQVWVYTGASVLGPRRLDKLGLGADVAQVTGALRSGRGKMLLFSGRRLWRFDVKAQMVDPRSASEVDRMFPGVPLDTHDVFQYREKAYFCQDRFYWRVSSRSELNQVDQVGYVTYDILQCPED
Test: Inhibition of human recombinant MMP9
Recorded IC50, one value per entry.
Quick note: give the figure in µM, leave out the unit.

[
  {
    "testSmiles": "CN(Cc1cnc2nc(N)nc(N)c2n1)c1ccc(C(=O)N[C@@H](CCC(=O)N[C@@H](Cc2ccccc2)C(=O)NO)C(=O)O)cc1",
    "unitString": "µM",
    "observedResult": 15
  }
]

// switching to the query molecule
Note down IC50 recorded for Nc1nc2ncc(CNc3ccc(C(=O)N[C@@H](CCC(=O)N[C@@H](Cc4ccccc4)C(=O)NO)C(=O)O)cc3)nc2c(=O)[nH]1
22

====

Recorded pIC50, one value per entry.
Molecular target: Matrix metalloproteinase-14 (Homo sapiens, UniProt P50281)
Experiment: Inhibition of human recombinant MMP14
A value of pIC50 is the negative decimal logarithm of a concentration given in moles per litre.

These solved cases illustrate the format of a correct answer.
[
  {
    "molecule": "Nc1nc2ncc(CNc3ccc(C(=O)N[C@@H](CCC(=O)N[C@@H](Cc4ccccc4)C(=O)NO)C(=O)O)cc3)nc2c(=O)[nH]1",
    "systemUnderTest": "Matrix metalloproteinase-14 (Homo sapiens, UniProt P50281)",
    "measurementType": "pIC50",
    "observedResult": 4.10
  },
  {
    "molecule": "COc1ccc(S(=O)(=O)N(Cc2cccnc2)[C@@H](C(=O)NO)C(C)C)cc1 [CGS-27023A]",
    "systemUnderTest": "Matrix metalloproteinase-14 (Homo sapiens, UniProt P50281)",
    "measurementType": "pIC50",
    "observedResult": 7.64
  }
]

Note down pIC50 recorded for CN(Cc1cnc2nc(N)nc(N)c2n1)c1ccc(C(=O)N[C@@H](CCC(=O)N[C@@H](Cc2ccccc2)C(=O)NO)C(=O)O)cc1
4.15
